- Assay remarks: Binding affinity to biotinylated 5'-Pu22-3'-labelled c-myc G-quadruplex DNA (unknown origin) after 240 secs by SPR assay
Property name: log10 Kd (log10 of the value in nM)

INSERT INTO assay_data (smiles_string, reported) VALUES
  ('O=C(CN1CCCC1)Nc1ccc(Nc2nc(-c3ccccc3NC(=O)CN3CCCC3)nc3ccccc23)cc1', 2.20),
  ('CN(C)CCNCCC(=O)Nc1ccc(Nc2nc(-c3ccccc3NC(=O)CCNCCN(C)C)nc3ccccc23)cc1', 2.15),
  ('CCN(CC)CCC(=O)Nc1ccc(Nc2nc(N(CC)CC)nc3ccccc23)cc1', 3.21),
  ('CCN(CC)CCNCCC(=O)Nc1ccc(Nc2nc(-c3ccccc3NC(=O)CCNCCN(CC)CC)nc3ccccc23)cc1', 2.32),
  ('O=C(CCN1CCCC1)Nc1ccc(Nc2nc(-c3ccccc3NC(=O)CCN3CCCC3)nc3ccccc23)cc1', 2.30),
  ('CN1CCN(CC(=O)Nc2ccc(Nc3nc(-c4ccccc4NC(=O)CN4CCN(C)CC4)nc4ccccc34)cc2)CC1', 2.79),
  ('CN1CCN(CCC(=O)Nc2ccc(Nc3nc(-c4ccccc4NC(=O)CCN4CCN(C)CC4)nc4ccccc34)cc2)CC1', 2.60),
  ('CCN(CC)CCC(=O)Nc1ccc(Nc2nc(Cl)nc3ccccc23)cc1', 3.74),
  ('CCN(CC)CCC(=O)Nc1ccc(Nc2nc(-c3ccccc3N)nc3ccccc23)cc1', 3.67);
